Origin of the recorded values: ChEMBL document CHEMBL3864182

# Assay Remarks: Solubility of the compound in PBS at pH 2
# Format: physicochemical
Everything with solubility lower than 40 µM is false; everything else, including exactly 40 µM, is true.

[[record]]
smiles_notation = "Cc1nccn1-c1ccc(-c2cn(CC(=O)Nc3cccc(Cl)c3Cl)nn2)cc1"
label = "true"

[[record]]
smiles_notation = "Cc1nccn1-c1ccc(-c2cn(C(C)(C)C(=O)Nc3cccc(Cl)c3Cl)nn2)cc1"
label = "true"

[[record]]
smiles_notation = "Cc1nccn1-c1ccc(-c2cn(CC(=O)Nc3cccc(Cl)c3Cl)nn2)cn1"
label = "true"

[[record]]
smiles_notation = "COc1cc(-c2cn(CC(=O)Nc3cccc(Cl)c3Cl)nn2)ccc1-n1cnc(C)c1"
label = "false"

[[record]]
smiles_notation = "Cc1cn(-c2ccc(-c3cn(CC(=O)Nc4cccc(Cl)c4Cl)nn3)cc2)cn1"
label = "false"

[[record]]
smiles_notation = "Cc1nccn1Cc1ccc(-c2cn(CC(=O)Nc3cccc(Cl)c3Cl)nn2)cc1"
label = "true"

[[record]]
smiles_notation = "Cc1nccn1-c1ccc(-c2cn(CC(=O)N(C)c3cccc(Cl)c3Cl)nn2)cc1"
label = "true"

[[record]]
smiles_notation = "Cc1cn(-c2ccc(-c3cn(CC(=O)Nc4cccc(Cl)c4Cl)nn3)c(F)c2)cn1"
label = "false"

[[record]]
smiles_notation = "O=C(Cn1cc(-c2ccc(-n3ccnc3)cc2)nn1)Nc1cccc(Cl)c1Cl"
label = "false"


Query: Decide: is the reported value of solubility for "Cc1cn(-c2ccc(-c3cn(CC(=O)Nc4cccc(Cl)c4Cl)nn3)cc2F)cn1" equal to or greater than 40 µM?
Reply: true
